Test system: biotinyl-Val-oxazolone
Assay: self-aminoacylation, catalytic enhancement (BVO) (fold over background); higher = more active; k-Seq, kA / k0A0; sequences stand for … in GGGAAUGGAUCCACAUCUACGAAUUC…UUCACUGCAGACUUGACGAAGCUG
This sample holds only a part of the variants without activity.
Exercise: state measured self-aminoacylation for each of the sequences provided.
// print number alone

Reported self-aminoacylation ( CUAGUUCAAACAAUCGGCCUG [Fam1A.1 aminoacylation ribozyme variant] ) = 1.84

Reported self-aminoacylation ( CCACACUUCAAGCAUGCGGUC [Fam1B.1 aminoacylation ribozyme variant] ) = 2.27

Reported self-aminoacylation ( AAGUUCGCUAAAAGUCGCAAG [Fam3.1 aminoacylation ribozyme variant] ) = 1.67

Reported self-aminoacylation ( AAGUUCGCUAAUAGUAGCAAG [Fam3.1 aminoacylation ribozyme variant] ) = 1.26

====

Tested on: biotinyl-Leu-oxazolone
Test: self-aminoacylation, catalytic enhancement (BLO) (fold over background); higher = more active; k-Seq, kA / k0A0; sequences stand for … in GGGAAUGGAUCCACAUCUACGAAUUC…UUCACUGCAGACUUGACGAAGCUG
Fewer inactive variants are shown than the library holds.
Classify by measured self-aminoacylation: class 1 if it is equal to or exceeds 3, class 0 if it is smaller.

Would you say AUUUUCCUAGGUCAUCGGGUG [Fam2.2 aminoacylation ribozyme variant] shows self-aminoacylation at minimum 3?
class 1

Would you say AUAACCCUGUUCAUCGAGUGA [Fam2.1 aminoacylation ribozyme variant] shows self-aminoacylation at minimum 3?
class 1

Would you say AUAACCCUGGUCACCGAGUGA [Fam2.1 aminoacylation ribozyme variant] shows self-aminoacylation at minimum 3?
class 1

Would you say AUUUCCCUGGUCAUCGAGUAA [Fam2.1 aminoacylation ribozyme variant] shows self-aminoacylation at minimum 3?
class 0

Would you say AAGUUUCCUAAUAGUCGUAAG [Fam3.1 aminoacylation ribozyme variant] shows self-aminoacylation at minimum 3?
class 0

Would you say AUUAGUCUGGUCAUCGAGUGA [Fam2.1 aminoacylation ribozyme variant] shows self-aminoacylation at minimum 3?
class 1

Would you say CCACACUUCAAGGUAUCGGUC [Fam1B.1 aminoacylation ribozyme variant] shows self-aminoacylation at minimum 3?
class 0

Would you say AUUUACCUAGUUCAUCGGGUG [Fam2.2 aminoacylation ribozyme variant] shows self-aminoacylation at minimum 3?
class 1

Would you say CCAGAAUUCAAGCAAUCGGUC [Fam1B.1 aminoacylation ribozyme variant] shows self-aminoacylation at minimum 3?
class 0

Would you say CUACUUCAAACAUUCCGUCUG [Fam1A.1 aminoacylation ribozyme variant] shows self-aminoacylation at minimum 3?
class 0

Would you say AUUACCCUGGUCUUCUAGUGA [Fam2.1 aminoacylation ribozyme variant] shows self-aminoacylation at minimum 3?
class 1

====

Test system: biotinyl-Leu-oxazolone
Test: self-aminoacylation, catalytic enhancement (BLO) (fold over background); higher = more active; k-Seq, kA / k0A0; sequences stand for … in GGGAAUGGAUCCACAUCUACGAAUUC…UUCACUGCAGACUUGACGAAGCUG
Fewer inactive variants are shown than the library holds.
Classify by measured self-aminoacylation: Condition met if it is equal to or exceeds 2, Condition not met if it is smaller.

Would you say AAGUUUGCUAAUAUUCGCAGG [Fam3.1 aminoacylation ribozyme variant] shows self-aminoacylation at minimum 2?
Condition not met

Would you say AUUACCCUGGGCAUCGCGUGA [Fam2.1 aminoacylation ribozyme variant] shows self-aminoacylation at minimum 2?
Condition met

Would you say GUUACCCUGGUUAUCGAGUGA [Fam2.1 aminoacylation ribozyme variant] shows self-aminoacylation at minimum 2?
Condition met

Would you say CAGCUUGCUAAUAGUCGCAAG [Fam3.1 aminoacylation ribozyme variant] shows self-aminoacylation at minimum 2?
Condition not met

Would you say AUUCCUCUAGGUCAUCGGGUG [Fam2.2 aminoacylation ribozyme variant] shows self-aminoacylation at minimum 2?
Condition met

Would you say CCACACUUCAUGCAAUCGUUC [Fam1B.1 aminoacylation ribozyme variant] shows self-aminoacylation at minimum 2?
Condition not met

Would you say ACCUUUGCUAAUAGUCGCAAG [Fam3.1 aminoacylation ribozyme variant] shows self-aminoacylation at minimum 2?
Condition met

Would you say CAACACUUGAAGCAAUCGGUC [Fam1B.1 aminoacylation ribozyme variant] shows self-aminoacylation at minimum 2?
Condition not met

Would you say CUACUUCUAACAAUCGGUCUU [Fam1A.1 aminoacylation ribozyme variant] shows self-aminoacylation at minimum 2?
Condition not met

Would you say GCACUUCAAACAAUCGGUCUG [Fam1A.1 aminoacylation ribozyme variant] shows self-aminoacylation at minimum 2?
Condition met

Would you say CCACCCUUCAAGCUAUCGGUC [Fam1B.1 aminoacylation ribozyme variant] shows self-aminoacylation at minimum 2?
Condition not met

Would you say CGACACUUCAAGUAAUCGGUC [Fam1B.1 aminoacylation ribozyme variant] shows self-aminoacylation at minimum 2?
Condition not met

====

System: biotinyl-Phe-oxazolone
Assay: self-aminoacylation, catalytic enhancement (BFO) (fold over background); higher = more active; k-Seq, kA / k0A0; sequences stand for … in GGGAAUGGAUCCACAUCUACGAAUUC…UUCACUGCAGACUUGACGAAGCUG
Fewer inactive variants are shown than the library holds.
Classify by measured self-aminoacylation: Y if it is equal to or exceeds 1, N if it is smaller.

Would you say AAGUAUGCGAAUAGUCGCAAG [Fam3.1 aminoacylation ribozyme variant] shows self-aminoacylation at minimum 1?
Y

Would you say CUACUUCAAACUAUCGGCCUG [Fam1A.1 aminoacylation ribozyme variant] shows self-aminoacylation at minimum 1?
N

Would you say AUUCACCUAGGUCAGCGGCUG [Fam2.2 aminoacylation ribozyme variant] shows self-aminoacylation at minimum 1?
Y

Would you say AAGCUUGCUAAUAGUCGCACG [Fam3.1 aminoacylation ribozyme variant] shows self-aminoacylation at minimum 1?
Y

Would you say CCACACUUCAAGAAAUCGGAC [Fam1B.1 aminoacylation ribozyme variant] shows self-aminoacylation at minimum 1?
N

Would you say AAGUUUGCGGAUAGUCGCAAG [Fam3.1 aminoacylation ribozyme variant] shows self-aminoacylation at minimum 1?
Y

Would you say AUUCACUUAGGUCAUAGGGUG [Fam2.2 aminoacylation ribozyme variant] shows self-aminoacylation at minimum 1?
Y

Would you say CCACACUUCGAGCAUUCGGUC [Fam1B.1 aminoacylation ribozyme variant] shows self-aminoacylation at minimum 1?
Y

Would you say AAGUUUGCUAAUUGUCGCCAG [Fam3.1 aminoacylation ribozyme variant] shows self-aminoacylation at minimum 1?
Y

Would you say CUCUUUCAAACAAUCGGUCUG [Fam1A.1 aminoacylation ribozyme variant] shows self-aminoacylation at minimum 1?
Y

Would you say GCACUUCAAACAAUCGGUCUG [Fam1A.1 aminoacylation ribozyme variant] shows self-aminoacylation at minimum 1?
Y

Would you say CCAGACUUCAAGCCAUCGGUC [Fam1B.1 aminoacylation ribozyme variant] shows self-aminoacylation at minimum 1?
N

Would you say CCGCACUUCAAGCAAUCGGAC [Fam1B.1 aminoacylation ribozyme variant] shows self-aminoacylation at minimum 1?
Y

Would you say CCAUACUUCAAACAAUCGGUC [Fam1B.1 aminoacylation ribozyme variant] shows self-aminoacylation at minimum 1?
Y

Would you say CCCCACUUCAAACAAUCGGUC [Fam1B.1 aminoacylation ribozyme variant] shows self-aminoacylation at minimum 1?
Y

Would you say CCACACUUCAAGCAUUCGGAC [Fam1B.1 aminoacylation ribozyme variant] shows self-aminoacylation at minimum 1?
N

Would you say CCACAGUUCAAGCAAUCGUUC [Fam1B.1 aminoacylation ribozyme variant] shows self-aminoacylation at minimum 1?
N

Would you say AAGUUUGCUAAGAGUCGCAAG [Fam3.1 aminoacylation ribozyme variant] shows self-aminoacylation at minimum 1?
Y

Would you say AUUACCCGGGUCAUCGUGUGA [Fam2.1 aminoacylation ribozyme variant] shows self-aminoacylation at minimum 1?
Y

Would you say UCACACUUCAAGCAAACGGUC [Fam1B.1 aminoacylation ribozyme variant] shows self-aminoacylation at minimum 1?
N

Would you say AUUACCCUGGUGAUCCAGUGA [Fam2.1 aminoacylation ribozyme variant] shows self-aminoacylation at minimum 1?
Y

Would you say AUUCACCUAUGUCAUCGGGCG [Fam2.2 aminoacylation ribozyme variant] shows self-aminoacylation at minimum 1?
Y

Would you say CUACUUCAAAUAAUCGGUCAG [Fam1A.1 aminoacylation ribozyme variant] shows self-aminoacylation at minimum 1?
Y

Would you say CCACACGUCAAGCAAUCGUUC [Fam1B.1 aminoacylation ribozyme variant] shows self-aminoacylation at minimum 1?
N

Would you say AUUACGUUGGUCAUCGAGUGA [Fam2.1 aminoacylation ribozyme variant] shows self-aminoacylation at minimum 1?
Y

Would you say CUCCUUCAUACAAUCGGUCUG [Fam1A.1 aminoacylation ribozyme variant] shows self-aminoacylation at minimum 1?
N

====

Tested on: biotinyl-Ile-oxazolone
Assay: self-aminoacylation, catalytic enhancement (BIO) (fold over background); higher = more active; k-Seq, kA / k0A0; sequences stand for … in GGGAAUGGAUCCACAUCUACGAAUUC…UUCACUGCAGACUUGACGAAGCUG
This sample holds only a part of the variants without activity.
Exercise: state measured self-aminoacylation for each of the sequences provided.

Reported self-aminoacylation ( GAACUUCAAACAAUCGGUCUG [Fam1A.1 aminoacylation ribozyme variant] ) = 1.85

Reported self-aminoacylation ( AAGUUUCCUAAUAGUCGCUAG [Fam3.1 aminoacylation ribozyme variant] ) = 1.61

Reported self-aminoacylation ( CCGCACUUCAACCAAUCGGUC [Fam1B.1 aminoacylation ribozyme variant] ) = 2.09

Reported self-aminoacylation ( CCACACUUCAAGCUCUCGGUC [Fam1B.1 aminoacylation ribozyme variant] ) = 1.21

Reported self-aminoacylation ( AAGUUGGCUGAUAGUCGCAAG [Fam3.1 aminoacylation ribozyme variant] ) = 1.8

Reported self-aminoacylation ( AAGUUUUCUAAUAGUCGCAGG [Fam3.1 aminoacylation ribozyme variant] ) = 1.59

Reported self-aminoacylation ( GUUCACCUAGGUCAUCAGGUG [Fam2.2 aminoacylation ribozyme variant] ) = 1.23

# credit: the supplement of paper PMC9233669
